Target: T1, human PRLR on cells (endogenous on T47D, T47D#11, MCF7); introduced in HEK293/hPRLR/STAT5-Luc, 293/hPRLR, … (human, UniProt P16471 25-622)
T1 sequence: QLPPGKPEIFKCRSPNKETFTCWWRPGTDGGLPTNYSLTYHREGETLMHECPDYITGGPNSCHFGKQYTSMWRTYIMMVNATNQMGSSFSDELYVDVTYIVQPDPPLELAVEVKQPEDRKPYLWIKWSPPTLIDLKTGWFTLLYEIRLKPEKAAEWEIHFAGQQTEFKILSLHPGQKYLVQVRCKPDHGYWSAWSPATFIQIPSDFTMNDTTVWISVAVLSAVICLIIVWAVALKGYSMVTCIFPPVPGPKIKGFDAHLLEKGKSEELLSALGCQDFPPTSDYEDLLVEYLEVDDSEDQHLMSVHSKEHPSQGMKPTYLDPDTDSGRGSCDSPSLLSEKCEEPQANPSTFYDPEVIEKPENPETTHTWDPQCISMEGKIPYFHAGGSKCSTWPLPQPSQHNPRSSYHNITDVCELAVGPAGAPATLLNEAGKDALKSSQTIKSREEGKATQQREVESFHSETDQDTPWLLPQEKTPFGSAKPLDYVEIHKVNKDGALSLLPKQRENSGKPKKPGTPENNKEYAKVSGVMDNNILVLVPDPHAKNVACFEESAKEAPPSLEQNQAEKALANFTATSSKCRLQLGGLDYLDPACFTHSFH
Experiment: cell-based or functional assay
PROPERTY_NAME: Percent Blocking at 100 nM Antibody (STAT5-Luc reporter) (%)
Provide the reading as a plain figure in %.

Take a look at these entries with their results.
H1H6966N (antibody, human IgG1, V domains shown, also called H2M6966N) VH: QVQLVQSGAEVQKPGASVKVSCKVSGYTLTALSIHWVRQAPGKGLEWMGNFDPGDGETIHAQKFQGRVTMTGDTSTDTAYMELSSLRSEDTAVYYCVGVTFDYWGQGTLVTVSS VL: EIVMTQSPATLSVSPGERATLSCRASQSVASNLAWYQQKPGQAPRLLLYGASTRATGIPARFSGSGSGTEFTLTISSLQSEDFALYYCQHYNNWPLTFGGGTKVEIK ... 54
H1H6792P (antibody, human IgG1, V domains shown, human IgG1 Fc (H1H)) VH: EVQLVESGGGLVQPGRSLRLSCAASGFTLDDHAVHWVRQAPGKGLEWVSGISWNSVYIDYADSVKGRFTIFRDNAKNSLYLQMNSLRAEDTAFYYCARDIEGARDYWGQGTLVTVSS VL: DIQMTQSPSSLSASVGDRVTITCRASQGIRNDLGWYQQKPGKAPKRLIYAASSLQSGVPSRFSGSGYGTEFTLTISSLQPEDFAPYYCLQHNSYPLTFGGGTKVEIK ... 100

Kindly review the next binder as well.
Asked: # lookup: Percent Blocking at 100 nM Antibody (STAT5-Luc reporter) of H1H6762P (antibody, human IgG1, V domains shown, human IgG1 Fc (H1H)) VH: QVQLVESGGGVVQPGRSLRLSCAASGFTFSHYGMVWVRQPPGKGLEWVALISFDGTTKYYADSVKGRFTISRDNSKNTLYLQMNSLRAEDTAVYFCVGAIAAAAFDLWGRGTLVTVSS VL: EIVMTQSPATLSVSPGERATLSCRASQSVSSDLAWYQQKPGQAPRLLIYSASARATGIPARFTGSGSGTDFTLTISSLQSEDFAVYYCQQYNNWPMYTFGQGTKLEIK
Given back: 100
